assay: protein stability index of a GFP-peptide fusion (yeast GPS) (PSI 1-4); higher = more stable; sorted into four equal gates, so the index is relative within each strain; details: pdr5∆
Decide by protein stability index: equal to or exceeding 3 means true (1), less means false (0).

- sequence-input: "NLDFDPRDVIKGKDFEI [FAS1]"
  classification: "false (0)"
- sequence-input: "LINIDTSIANAFRRIMI [RPC40]"
  classification: "false (0)"
- sequence-input: "AELIGLQPIFKGEEAKL [SSN3]"
  classification: "false (0)"
- sequence-input: "PSLEKSSFTFGSTTIEK [YLR335W/NUP2]"
  classification: "false (0)"
- sequence-input: "IQKESTLHLVLRLRGGI [RPL40A]"
  classification: "false (0)"
- sequence-input: "QEASQVTFIFGELKRGN [MED11]"
  classification: "false (0)"
- sequence-input: "REIQIDAVLKIFSFHQD [SRB8]"
  classification: "true (1)"
- sequence-input: "CVYSGLIPDGRHLVNRG [PRE10]"
  classification: "false (0)"
- sequence-input: "FNITDNGVRALFHSCTR [GRR1]"
  classification: "false (0)"
- sequence-input: "NVYVLPKNLLKKFIEIS [PRP8]"
  classification: "false (0)"
- sequence-input: "GSQFIVVSLKEGMFANA [SMC2]"
  classification: "true (1)"
- sequence-input: "STEETTANTGTIGKRRT [TAF14]"
  classification: "true (1)"
- sequence-input: "KSSLSLRDHALSLTAFT [ITC1]"
  classification: "false (0)"
- sequence-input: "DLEEAYATQVKTDNTVD [RPT3]"
  classification: "false (0)"
- sequence-input: "SSIVAIDWASPEYGRII [YGL100W/SEH1]"
  classification: "true (1)"
- sequence-input: "TYQTERFTKFSDTLKEF [YDL116W/NUP84]"
  classification: "false (0)"
- sequence-input: "VRELGILCIFEGEKCHP [SEC65]"
  classification: "false (0)"
- sequence-input: "TLIVVPFNQGSKQDVEA [FAS2]"
  classification: "true (1)"
- sequence-input: "VGCIFAELIGLQPIFKG [SSN3]"
  classification: "false (0)"
- sequence-input: "EDDTQIVTGNLVLDLLT [IRR1]"
  classification: "false (0)"
- sequence-input: "TSNGLKKNPNWLEEYHP [FAS1]"
  classification: "true (1)"
- sequence-input: "AIRRDARYNWICNPVHK [RPL15B]"
  classification: "true (1)"
- sequence-input: "VVERHLEDGDVVLFNRQ [RPO31]"
  classification: "true (1)"
- sequence-input: "LDRRFEIFFKKDSLWQS [FAS1]"
  classification: "true (1)"
- sequence-input: "PYPGSPMHSIMPNSSLQ [DSN1]"
  classification: "false (0)"
- sequence-input: "KDLTLCRYSCLALERMV [YCS4]"
  classification: "false (0)"
- sequence-input: "LSINKNFINQEDEGEER [RPC17]"
  classification: "true (1)"
- sequence-input: "HEAYSIIEKITDQILQL [RRP45]"
  classification: "false (0)"
- sequence-input: "GIKPPKGVLLYGPPGTG [RPT4]"
  classification: "false (0)"
- sequence-input: "SSEGFYSKIKHLGLDDP [SIR2]"
  classification: "false (0)"
- sequence-input: "WNWAKQSLLSLYFEIIH [FAS2]"
  classification: "false (0)"
- sequence-input: "AFDLDGTGKSQSGSNSG [ROX3]"
  classification: "false (0)"
- sequence-input: "HSNESSNETIGEIQLLF [IRR1]"
  classification: "false (0)"
- sequence-input: "DDIVSHQGTPLGSHSSS [REC8]"
  classification: "true (1)"
- sequence-input: "LGVPRIKEIINASKVIS [RPO31]"
  classification: "false (0)"
- sequence-input: "KQLQLAMHNSKAASSTR [POP1]"
  classification: "false (0)"
- sequence-input: "ECGTGTTIHTFNRKENP [RPN14]"
  classification: "false (0)"
- sequence-input: "IVNVNFMKSVIRSREAF [DIS3]"
  classification: "false (0)"
- sequence-input: "PNFDWDLCSSVLSQFER [ROX3]"
  classification: "false (0)"
- sequence-input: "KRLIAHDWLNALDGDLI [YCG1]"
  classification: "false (0)"
- sequence-input: "DQFITSLKCTDPYELKG [ITC1]"
  classification: "false (0)"
- sequence-input: "SIVGVDLSSAASASGAA [FAS2]"
  classification: "false (0)"
- sequence-input: "QLDLTGIFLHGKIPTLK [PRP8]"
  classification: "false (0)"
- sequence-input: "VSMYQNSSTSSTSNTPS [YDL088C/ASM4]"
  classification: "false (0)"
- sequence-input: "TRPISSQVLDLAKKIAP [SMC2]"
  classification: "false (0)"
- sequence-input: "ELLSMNIAPRLRLEDIF [RET1]"
  classification: "false (0)"
- sequence-input: "YFSVTTARRNVSGDAAA [SWI3]"
  classification: "false (0)"
- sequence-input: "DDPTQLVSRGGCGNTQP [RPO21]"
  classification: "false (0)"
- sequence-input: "IPFQTLYRSIESGEFDF [YJL039C/NUP192]"
  classification: "false (0)"

Origin of measurements: the supplement of paper PMC9732359
